- Test system: MS2 coat protein
- Assay summary: apparent KD of MS2 coat protein; designed switch direction (-1 OFF switch, 1 ON switch): -1; higher = weaker reporter binding
- Test settings: input ligand: microRNA oligo, concentration not stated
A collection of sequences and their measured apparent KD of MS2 coat protein

# Sequence text, apparent KD of MS2 coat protein (nM)
data = [
    ("GGAUCGAGUGUGAGGAUAUGCUGGUCCUUGGAUCAGCAGAAGGCACAUGAGGAUCACCCAUGUGAAGACGAUCC [Mat - Exclusion 4 - JL Mod - D73] (Eterna round: R96, puzzle: Brourd's mod of Exclusion 4)", 23.1),
    ("UUAAUACAUGUAGGAUAUGCGUGGCGAAGCUAUGCAGAAGGACAUGAGGAUCACCCAUGUCUCUGCGUCCGCGUACGGAUGCAA [JL Eng1 1.21 mod 5] (Eterna round: R96, puzzle: Exclusion NG 1)", 11.6),
    ("UAUAUAUAGUAAGGAUAUGUAAUUAGUUUAUAAACAGAAGGUACUGACAUGAGGAUCACCCAUGUUUUAGUGUGGGCAUGUAGA [JMF's solution 36] (Eterna round: R96, puzzle: Exclusion NG 1)", 61.3),
    ("GUCAGCUCGUGAGGAUAUACAUGCGUGCUUCGGCACGUAUGAUAGAUCACAUGAGGAUCACCCAUGUAGAAGGCACGAGCUGAU [ENG2/4-A2] (Eterna round: R96, puzzle: Exclusion NG 2)", 10.4),
    ("AAAAAAAAGUGAGGAUAUGGAAAUUUGGUGAUAACAUGAGGAUCACCCAUGUGAAAACAAUAAAAUUAGAAGGUAUAAAAAAAA [AK ExNG2-1] (Eterna round: R96, puzzle: Exclusion NG 2)", 73.1),
    ("UAUAUAUAGUAAGGAUAUGUAUUUAAUUUAUAAACAGAAGGUACUGACAUGAGGAUCACCCAUGUUUUAGUGUGGGCAUGUAGA [JMF's solution 13] (Eterna round: R96, puzzle: Exclusion NG 1)", 80.8),
    ("UCGUUUCGUGUAGGAUAUUGGCCUGCUCUGGGUCGAGAAGGACAUGAGGAUCACCCAUGUAUGUUAUUAUCACGCGUGGCGCAU [Design 82] (Eterna round: R96, puzzle: Exclusion NG 1)", 34),
    ("AUGCUCCGUGUAGGAUAUCGCCGCAUCACUCGGCGAGAAGGACAUGAGGAUCACCCAUGUAUGUUAUUAUCACGUGUGGCGCGC [Design 44] (Eterna round: R96, puzzle: Exclusion NG 1)", 16.7),
    ("CUGCUGGAGCUUUGCUUUAGUCGUACAUGAGGAUCACCCAUGUAGGAUAUGGUAGGCUUUGCUUACUAGAAGGAUGGAGUGGUC [salish99_ExNG3_r04_607] (Eterna round: R96, puzzle: Exclusion NG 3)", 38.1),
    ("UGUUUAUAUGAAGGAUAUACUUAACAUGAGGAUCACCCAUGUGGUGUUGUGAGUGAGUGAGUUUAGUAGAAGGUCAAGUAUUUU [JMF's solution 54] (Eterna round: R96, puzzle: Exclusion NG 2)", 373),
    ("UACAUGAGGAUCACCCAUGUUUUGUCGUGUAUGGUAUUUAUCUAGGAUAUCAAUUUACUUAUUUAUGAGAAGGAGAAUAUUAAU [JMF's solution 19] (Eterna round: R96, puzzle: Exclusion NG 3)", 26.8),
    ("ACAUGAGGAUCACCCAUGUGCACGUAAUGGCUCAUGUAGAGUGAGGAUAUGCGUGGCGAACGCGCGCAGAAGGCACAAGACUGG [Deportation 18 - Jieux - Exclusion NG 3] (Eterna round: R96, puzzle: Exclusion NG 3)", 88.8),
    ("AUGCUCCGUGUAGGAUAUCGCCGCACCACCCGGCGAGAAGGACAUGAGGAUCACCCAUGUAUGUUAUUAUCACGUGUGGCGCGC [Design 42] (Eterna round: R96, puzzle: Exclusion NG 1)", 12.3),
    ("AAAAAGGUAGGAUAUACGAAAAAAAAGGGUAAAAUAAAUAAACAUGAGGAUCACCCAUGUAGAAGGACCAAAAA [Mat - Exclusion 2 - Tesla mod - D38] (Eterna round: R96, puzzle: Exclusion 2)", 22.8),
    ("CAUUGUUAUCGAGGAUAUCGUAUUGAGAUUCUACGAGAAGGCGGACUAAACAUGAGGAUCACCCAUGUGGGACGGAUGCUUGGG [Ex NG1 #31] (Eterna round: R96, puzzle: Exclusion NG 1)", 25.8),
    ("ACAUGACUGCUAGGAUAUAGAUGACAUGAGGAUCACCCAUGUUAUCCCAUGUUGACGGAAACCGACUAGAAGGAGCAGCAUAUG [Ex NG2 #9] (Eterna round: R96, puzzle: Exclusion NG 2)", 43.5),
    ("AACUGAUCUUGAGGAUAUCAAACACAUGAGGAUCACCCAUGUCACGAGACGGUGCUUUCCAGGAGUGAGAAGGUAAGCAGCGAG [Eternabot solution 44] (Eterna round: R96, puzzle: Exclusion NG 2)", 28),
    ("AUUGUUUAUGUAGGAUAUGCCUGGCGUGCCUUUGCAGAAGGACAUGAGGAUCACCCAUGUAACAUGAGGCUCACCCAUGUCGCC [salish99_ExNG1_r04_114] (Eterna round: R96, puzzle: Exclusion NG 1)", 123),
]
